Test: Stability of blank-LNP at 2-8° C. (particle size, PDI)
Format: physicochemical
Details: blank-LNP 48/40.5/10/1.5 mol %, 1 month
Think of 200 nm as a floor: if Size, T = 1 month stands on it or above, it is Yes; beneath it, No.

> print(dat)
                                   compound  group
1  CCCCCC/C=C/COC(=O)CCCCCCCCC(CCCCCCCCC(=O)OC/C=C/CCCCCC)OC(=O)CCCN(C)C    Yes
2  CCCCCCCCCOC(=O)CCCCCCCOc1ccc(OCCCCCCCC(=O)OCCCCCCCCC)c(COC(=O)CCCN(C)C)c1     No
3  CCCCCCOCCC/C=C/COC(=O)CCCCCCCCC(CCCCCCCCC(=O)OC/C=C/CCCOCCCCCC)OC(=O)CCCN(C)C    Yes
4  CC/C=C/CCCC(CCC/C=C/CC)OC(=O)CCCCCCCC(CCCCCCCC(=O)OC/C=C/CCCCCC)COC(=O)CCCN(C)C (centres unmarked)     No

stdin: Please indicate if the recorded Size, T = 1 month for CCCCCCCCOC/C=C\COC(=O)CCCCCCCCC(CCCCCCCCC(=O)OC(CCCCCCCC)CCCCCCCC)OC(=O)CCCN(C)C (centres unmarked) meets or exceeds 200 nm.
stdout: No

---

Size, T = 0 for assorted compounds
Experiment: Stability of blank-LNP at 2-8° C. (particle size, PDI)
Assay type: physicochemical
Settings: blank-LNP 48/40.5/10/1.5 mol %, T = 0
Give your result in nm as a bare value.

Please review the entries below; each comes with its answer.
> print(dat)
                                   compound  unit.label  observed.result
1  CC/C=C/CCCC(CCC/C=C/CC)OC(=O)CCCCCCCC(CCCCCCCC(=O)OC/C=C/CCCCCC)COC(=O)CCCN(C)C (stereo not shown)          nm               91
2  CCCCCCCCCOC(=O)CCCCCCCOc1ccc(OCCCCCCCC(=O)OC(CCCCCCCC)CCCCCCCC)cc1COC(=O)CCCN(C)C          nm               88
3  CCCCCCOCCC/C=C/COC(=O)CCCCCCCCC(CCCCCCCCC(=O)OC/C=C/CCCOCCCCCC)OC(=O)CCCN(C)C          nm              165

stdin: For the compound shown here, "CCCCCC/C=C/COC(=O)CCCCCCCCC(CCCCCCCCC(=O)OC/C=C/CCCCCC)OC(=O)CCCN(C)C" , give the reported Size, T = 0.
stdout: 207

---

Experiment: Stability of blank-LNP at 2-8° C. (particle size, PDI)
Format: physicochemical
Settings: blank-LNP 48/40.5/10/1.5 mol %, T = 0
Property: PDI, T = 0; scope: individual compounds

Observe how each entry below is paired with its result.
> print(dat)
                                   compound  observed.result
1  CCCCCC/C=C/COC(=O)CCCCCCCCC(CCCCCCCCC(=O)OC/C=C/CCCCCC)OC(=O)CCCN(C)C             0.09
2  CCCCCCCCCOC(=O)CCCCCCCOc1ccc(OCCCCCCCC(=O)OC(CCCCCCCC)CCCCCCCC)cc1COC(=O)CCCN(C)C             0.13
3  CCCCCCCCCOC(=O)CCCCCCCOc1ccc(OCCCCCCCC(=O)OCCCCCCCCC)c(COC(=O)CCCN(C)C)c1             0.09
4  CCCCCCOCCC/C=C/COC(=O)CCCCCCCCC(CCCCCCCCC(=O)OC/C=C/CCCOCCCCCC)OC(=O)CCCN(C)C             0.09
5  CCCCCCCCCCC(CCCCCCCCCC)C(=O)OCCCCCCOc1ccc(OCCCCCCOC(=O)C(CCCCCCCCCC)CCCCCCCCCC)c(COC(=O)CCCN(C)C)c1             0.13
6  CCCCCCCCOC/C=C\COC(=O)CCCCCCCCC(CCCCCCCCC(=O)OC(CCCCCCCC)CCCCCCCC)OC(=O)CCCN(C)C (centres unmarked)             0.04

stdin: Entry CC/C=C/CCCC(CCC/C=C/CC)OC(=O)CCCCCCCC(CCCCCCCC(=O)OC/C=C/CCCCCC)COC(=O)CCCN(C)C (centres unmarked) : reported PDI, T = 0 = ?
stdout: 0.05

stdin: Need PDI, T = 0 of "CCCCCCCCCOC(=O)CCCCCCCOc1ccc(OCCCCCCCC(=O)OC(CCCCCCCC)CCCCCCCC)c(COC(=O)CCCN(C)C)c1" , thanks.
stdout: 0.20

Source: patent US20240390484A1
